Source of measurements: PubChem BioAssay AID686952

test: apparent activators from fluorescence artefacts, no enzyme – biochemical, fluorescence intensity, high throughput, artefact control for kallikrein-7 zymogen activator project (AID 686952); conditions: EDANS-DABCYL substrate fluorescence interference, 4 h, at 7 µM, solvent 0%, active enzyme control 100%;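 also: value is the 4 h activation minus the activation read at time zero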
Screen size: about 3,200 compounds; about 2,600 (81%) were called active.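 The calls were made as follows: active = activation above the all-compound mean plus 3 SD, ignoring values outside control-based bounds (cut at about 4.8% in these data); inactive = the rest.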 The set was probably picked from earlier hits. Only a sample is shown.
Possible outcomes: active, inactive

>>> class_label("CC(C)(C)C(=O)Nc1ccc(-c2cn3cccnc3n2)cc1")
"active"
>>> class_label("Cc1cc(C)c2c(n1)nn1c(-n3ccnc3)cc(C)nc21")
"active"
>>> class_label("CCOCCCNC(=O)c1cc2c(=O)n3ccccc3nc2s1")
"active"
>>> class_label("CN(C(=O)COc1ccccc1)c1nnc(-c2ccncc2)s1")
"active"
>>> class_label("CCc1nc(Nc2ccc(NC(C)=O)cc2)c2oc3ccccc3c2n1")
"active"
>>> class_label("CN(C(=O)c1ccccn1)c1nnc(-c2ccccn2)s1")
"active"
>>> class_label("CC(=O)Nc1ccc(-c2cn3cccnc3n2)cc1")
"active"
>>> class_label("CC(C)Cc1nc(Nc2ccc(S(=O)(=O)N3CCCC3)cc2)c2nnn(Cc3ccccc3)c2n1")
"active"
>>> class_label("Cc1cc(C)c2nc3nc(C)cc(C)c3c(N)c2c1")
"active"
>>> class_label("Cc1cccc(C)c1NC(=O)C(c1ccccc1)N1CC(=O)Nc2ccccc21 (configuration not stated)")
"active"
>>> class_label("COCC(=O)Nc1nnc(COc2ccccc2)s1")
"inactive"
>>> class_label("O=C1NC(c2cccc(Cl)c2)Nc2ccccc21 (configuration not stated)")
"active"

----------
test: apparent activators from fluorescence artefacts, no enzyme – biochemical, fluorescence intensity, high throughput, artefact control for kallikrein-7 zymogen activator project (AID 686952); settings: EDANS-DABCYL substrate fluorescence interference, 4 h, at 7 µM, active compounds read high, solvent 0%, active enzyme control 100%;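 also: value is the 4 h activation minus the activation read at time zero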
Among all 3,200 compounds or so, about 2,600 (81%) were called active. The set was probably picked from earlier hits. These entries were drawn from the full list.
Output Criterion met for activation not less than 60%; output Criterion not met otherwise.

>>> class_label("O=c1oc2c(CN3CCCCC3)c(O)ccc2c2c1CCCCC2")
"Criterion met"
>>> class_label("CCN1CCc2c(C#N)c(NCc3ccccc3)nc(NCCO)c2C1")
"Criterion not met"
>>> class_label("N#CC1=C(N)Oc2c(sc3ccccc23)C1c1ccco1 (stereo unspecified)")
"Criterion not met"
>>> class_label("COc1cc(/C=C/C(=O)Nc2ccc(OC)c(S(=O)(=O)N3CCOCC3)c2)ccc1OCC#N")
"Criterion met"
>>> class_label("CC1(C)CC(=O)c2cc(OCC(=O)NCC3CCCO3)ccc2O1 (stereo unspecified)")
"Criterion not met"
>>> class_label("CNC(=O)COC(=O)c1cc(-c2ccc(OC)cc2)nc2ccccc12")
"Criterion met"
>>> class_label("CNc1cncc(-c2cccc(C(=O)N3CCOCC3)c2)n1")
"Criterion not met"
>>> class_label("Cc1cc(C)c(C#N)c(SCC(=O)NN2CC(=O)N(c3ccccc3F)CC2=O)n1")
"Criterion not met"
>>> class_label("COc1ccc(CNC(=O)COC(=O)C2=Cc3ccccc3OC2)cc1")
"Criterion not met"
>>> class_label("Cc1nc2ccccc2cc1O")
"Criterion not met"
>>> class_label("CCN(CC)CCCNC(=O)c1cc2c(=O)[nH]c3ccc(C)cc3c2s1")
"Criterion not met"

----------
assay: apparent activators from fluorescence artefacts, no enzyme – biochemical, fluorescence intensity, high throughput, artefact control for kallikrein-7 zymogen activator project (AID 686952); conditions: EDANS-DABCYL substrate fluorescence interference, 4 h, at 7 µM, solvent 0%, active enzyme control 100%;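 also: value is the 4 h activation minus the activation read at time zero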
Hit rate of the full screen: of about 3,200 compounds, about 2,600 (81%) were called active.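 How the source made its calls: active means activation above the all-compound mean plus 3 SD, ignoring values outside control-based bounds (cut at about 4.8% in these data); inactive means the rest.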 The set was probably picked from earlier hits. These entries were drawn from the full list.
Possible outcomes: active, inactive

>>> class_label("Cc1cc(=O)oc2c3c(cc(OCC(=O)N[C@H](C(=O)O)c4ccccc4)c12)OC(C)(C)CC3")
"active"
>>> class_label("O=C(O)c1ccc2c(c1)C(=O)N(c1ccc(/C=C/C(=O)c3ccccc3)cc1)C2=O")
"active"
>>> class_label("COc1cc(/C=N\\NC(=O)c2nonc2N)c(OC)cc1Br")
"active"
>>> class_label("Cc1cc(=O)oc2c3c(cc(OCC(=O)NCCC(=O)N[C@@H](C)C(=O)O)c12)OC(C)(C)CC3")
"active"
>>> class_label("Cc1c(C)c2c(OCC(=O)NCCCO)cc3c(c2oc1=O)CCC(C)(C)O3")
"active"
>>> class_label("COc1ccc(-c2cc(C(=O)n3cnc4ccccc43)c3ccccc3n2)cc1")
"active"
>>> class_label("CNc1cncc(-c2ccc(NS(C)(=O)=O)cc2)n1")
"active"
>>> class_label("O=C(/C=C/c1ccc2c(c1)OCCO2)c1ccc(O)cc1")
"inactive"
>>> class_label("COC(=O)c1cc(N2CCNCC2)nc2ccccc12")
"active"
>>> class_label("CC(C)(C)Nc1c(-c2cccs2)nc2ccccn12")
"inactive"
>>> class_label("O=c1c(-c2ccccc2)coc2c(CN3CCOCC3)c(O)ccc12")
"active"

----------
assay: apparent activators from fluorescence artefacts, no enzyme – biochemical, fluorescence intensity, high throughput, artefact control for kallikrein-7 zymogen activator project (AID 686952); conditions: EDANS-DABCYL substrate fluorescence interference, 4 h, at 7 µM, active compounds read high, solvent 0%, active enzyme control 100%;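 also: value is the 4 h activation minus the activation read at time zero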
About 2,600 (81%) of roughly 3,200 compounds were called active. So high a share suggests a set chosen from earlier hits. The list is a sample of the results.
Output Fulfilled for activation not less than 20%; output Not fulfilled otherwise.

>>> class_label("CN(C)C(=O)c1coc2nc3ccccc3nc12")
"Fulfilled"
>>> class_label("C[C@@H]1C(c2ccc(F)cc2)=NN(c2ccc(Br)cc2)[C@H]1C(=O)N1CCOC1=O")
"Fulfilled"
>>> class_label("CC(C)(C)OC(=O)c1c(N)n(CCCN2CCCC2=O)c2nc3ccccc3nc12")
"Fulfilled"
>>> class_label("O=C(NCCN1CCOCC1)c1cc(-c2cccs2)nc2ccccc12")
"Fulfilled"
>>> class_label("CCc1ccc(-c2cc(C(=O)NCc3ccco3)c3ccccc3n2)s1")
"Fulfilled"
>>> class_label("COc1ccc2nc(Nc3nc4cc5c(cc4s3)OCCO5)sc2c1")
"Not fulfilled"
>>> class_label("COc1cccc(OCc2cc(/C=N/NC(=O)c3nc(Cl)c(Cl)c(N)c3Cl)ccc2OC)c1")
"Fulfilled"
>>> class_label("Cc1ccc2nc3c(cc(C(=O)NCCc4ccccc4)c(=N)n3CC3CCCO3)c(=O)n2c1 (stereo not given)")
"Not fulfilled"
>>> class_label("CCn1c(=N)c(C(=O)NCCCOC)cc2c(=O)n3cccc(C)c3nc21")
"Fulfilled"
>>> class_label("CCC(c1nnnn1Cc1ccco1)N(CCc1ccccc1)Cc1cc2ccc(OC)cc2[nH]c1=O (stereo not given)")
"Not fulfilled"
>>> class_label("Cc1cc2cc3n(c2nn1)N=C(Cl)CC3")
"Fulfilled"
>>> class_label("COc1cc2c(cc1OC)C(C(C)C)=NC(C)(C)C2")
"Fulfilled"
>>> class_label("O=C(OC1CCOC1=O)c1ccc(-c2nc3ccccc3s2)s1 (stereo not given)")
"Not fulfilled"
>>> class_label("COC(=O)C1=NN(c2ccccc2)C2C(=O)N(c3ccccc3OC)C(=O)C12 (stereo not given)")
"Not fulfilled"
>>> class_label("COc1cc(C(=O)N2C(=O)c3cccc(N)c3C2=O)cc(OC)c1OC")
"Fulfilled"
>>> class_label("Cc1ccsc1-c1cc(C(=O)O)c2c(ccc3ccccc32)n1")
"Fulfilled"
>>> class_label("Cc1nn(-c2ccccc2)c(C)c1NC(=O)COC(=O)c1cc(Cl)ccc1O")
"Fulfilled"
>>> class_label("COc1c(N2CCN(C(=S)Nc3ccccc3F)C(C)C2)c(F)cc2c(=O)c(C(=O)O)cn(C3CC3)c12 (stereo not given)")
"Not fulfilled"
>>> class_label("Cc1cccn2c(=O)c3cc(C#N)c(=NC(=O)c4cccnc4)n(CC4CCCO4)c3nc12 (stereo not given)")
"Not fulfilled"
>>> class_label("CCOc1ccc(N2C(=O)CC(N(O)c3ccccc3)C2=O)cc1 (stereo not given)")
"Fulfilled"
>>> class_label("CCCc1cc(=O)oc2c(C)c(O)c(CN3CCCCC3)cc12")
"Fulfilled"
>>> class_label("CCN1CCCC1CNC(=O)c1cc2cc(OC)c(OC)cc2[nH]1 (stereo not given)")
"Fulfilled"
>>> class_label("CCOC(OCC)c1ccc(/C=C\\c2nccc(N)n2)cc1")
"Not fulfilled"
>>> class_label("Cc1nc2ccc(N)nc2nc1C")
"Fulfilled"
>>> class_label("CC(C)=NN1C(=O)c2ccccc2NC1(C)C")
"Fulfilled"
>>> class_label("COc1nc(N=C(N)N)nc2c(C)cccc12")
"Fulfilled"
>>> class_label("COCCN(CCOC)c1nc(N)c2c(N)nc3c(c2c1C#N)CC(=O)N3Cc1ccc(Cl)cc1")
"Not fulfilled"
>>> class_label("CN1c2ccccc2-c2nc3ccccc3n2C1c1ccco1 (stereo not given)")
"Not fulfilled"
>>> class_label("COCc1cc(=O)[nH]c2cc(NC(=O)C(F)(F)F)c(C)cc12")
"Fulfilled"
>>> class_label("CCOc1ccccc1C1C(C(=O)OC)=CN(C)C=C1C(=O)OC")
"Not fulfilled"
>>> class_label("O=C(Nc1nncs1)c1ccccc1NS(=O)(=O)c1cccs1")
"Fulfilled"
>>> class_label("COc1ccc2nc(-c3ccccn3)ccc2c1")
"Not fulfilled"
>>> class_label("Cn1cccc1/C=N/NC(=O)CNc1cccc2ccccc12")
"Not fulfilled"
>>> class_label("CCCn1c(=NC(C)=O)c(C(=O)OCC)cc2c(=O)n3ccccc3nc21")
"Fulfilled"
>>> class_label("CCS(=O)(=O)Nc1cc(C(=O)OC)ccc1C(=O)OC")
"Not fulfilled"
>>> class_label("COC(=O)c1ccc(C2C3=C(Nc4nnnn42)c2ccccc2OC3)cc1 (stereo not given)")
"Not fulfilled"
>>> class_label("CCCN(CC(=O)NC(=O)NC1CCCCC1)CC(=O)Nc1cc(Cl)ccc1Cl")
"Not fulfilled"
>>> class_label("CC(=O)Nc1cc2ccc(OC(C)=O)cc2oc1=O")
"Fulfilled"
>>> class_label("Cc1coc2c1c(C)cc1oc(=O)c(CC(=O)NCC(=O)N[C@H](C(=O)O)C(C)C)c(C)c12")
"Fulfilled"
>>> class_label("Clc1ccc(-c2cccc3nccn23)cc1")
"Not fulfilled"
>>> class_label("CC(=O)Oc1ccc2c(C)c(CC(C)O)c(=O)oc2c1 (stereo not given)")
"Fulfilled"
>>> class_label("COc1cccc2sc3cc(NCC[C@@H]4CCCN4C)ccc3c(=O)c12")
"Fulfilled"
>>> class_label("COc1ccc(CCNC(=O)Nc2ccc3c(c2)c(=O)n(C)n3C)cc1OC")
"Fulfilled"
>>> class_label("COc1ccc2c(c1)CCc1cn3ncc(C#N)c3nc1-2")
"Not fulfilled"
>>> class_label("CCN(CC(=O)Nc1c(F)cccc1F)C(=O)c1ccc(-c2ccc(C(C)=O)cc2)o1")
"Not fulfilled"
